Tested on: 227483-062-R1-J1-PDC complex spheroids with HUVEC/MSC, viability;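 note: spheroids exposed to compounds for seven days before readout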
Method description: Anticancer human tumor 227483-062-R1-J1-PDC patient-derived pancreatic carcinoma cell line growth inhibition [CLK]
Cond: second compound 0.316 µM; first compound 10 µM; stronger effect = lower value
Labelling: viability, T/C reported below 20% becomes Yes; at or above becomes No.

Answered examples (4):
Molecule | System under test | Class
C=C(F)C(=O)N1CCN(c2nc(OCC3CCCN3C)nc3c2CCN(c2cccc4cccc(Cl)c24)C3)CC1CC#N (stereo not given) + CNC(=O)c1ccc(Nc2nc(OC3CCCC3)c3c(-c4ccc5nc(C)oc5c4)c[nH]c3n2)c(OC)c1 | 227483-062-R1-J1-PDC complex spheroids with HUVEC/MSC, viability | Yes
COC1C=CCC(C)C(C)S(=O)(=O)NC(=O)c2ccc3c(c2)N(CC2CCC21)CC1(CCCc2cc(Cl)ccc21)CO3 (stereo not given) + CNC(=O)c1ccc(Nc2nc(OC3CCCC3)c3c(-c4ccc5nc(C)oc5c4)c[nH]c3n2)c(OC)c1 | 227483-062-R1-J1-PDC complex spheroids with HUVEC/MSC, viability | Yes
O=c1[nH]cc(F)c(=O)[nH]1 + CNC(=O)c1ccc(Nc2nc(OC3CCCC3)c3c(-c4ccc5nc(C)oc5c4)c[nH]c3n2)c(OC)c1 | 227483-062-R1-J1-PDC complex spheroids with HUVEC/MSC, viability | No
Nc1ccccc1NC(=O)c1ccc(CNC(=O)OCc2cccnc2)cc1 + CNC(=O)c1ccc(Nc2nc(OC3CCCC3)c3c(-c4ccc5nc(C)oc5c4)c[nH]c3n2)c(OC)c1 | 227483-062-R1-J1-PDC complex spheroids with HUVEC/MSC, viability | No

# next molecule below
Bench note: check whether O=C(c1cc(Cc2n[nH]c(=O)c3ccccc23)ccc1F)N1CCN(C(=O)C2CC2)CC1 + CNC(=O)c1ccc(Nc2nc(OC3CCCC3)c3c(-c4ccc5nc(C)oc5c4)c[nH]c3n2)c(OC)c1 shows viability, T/C below 20%
No
